- System: HSV-1 strain 17 YFP-ICP4 in A549
- Assay: HSV-1 infection relative to DMSO (ICP4-YFP per H2B-RFP signal); higher = more viral infection (less antiviral activity), active = hit call of the paper
- Study conditions: 10 µM; 48 h; MOI: 0.1
Counter-ions that a name gives are not always drawn. Out of some 1,700 compounds screened, about 15 (0.9%) showed activity. The sample as a whole holds a higher share of actives than the screen did.
We use 90% as the dividing line for HSV-1 infection: on or above the line is True, below is False.

Molecule	Assigned class
C[C@H](NC(=O)[C@@H](Cc1ccc2ccccc2c1)NC(=O)[C@@H](C)N)C(=O)N[C@@H](Cc1c[nH]c2ccccc12)C(=O)N[C@H](Cc1ccccc1)C(=O)N[C@@H](CCCCN)C(N)=O	True
CC(C)(Oc1ccc(Cl)cc1)C(=O)OCCOC(=O)c1cccnc1 [Etofibrate]	True
C[N+](C)(C)CCO.O=C([O-])C(O)C(O)C(=O)O (configuration not stated) [Choline bitartrate]	True
CCCSc1nc(N[C@@H]2C[C@H]2c2ccc(F)c(F)c2)c2nnn([C@@H]3C[C@H](OCCO)[C@@H](O)[C@H]3O)c2n1 [Ticagrelor]	False
COc1cc(O)c(C(=O)Nc2nc(C(=O)NCCN(C(C)C)C(C)C)cs2)cc1OC [Acotiamide hydrochloride]	False
CCOc1cc2ncc(C#N)c(Nc3ccc(OCc4ccccn4)c(Cl)c3)c2cc1NC(=O)/C=C/CN(C)C [Neratinib (HKI-272)]	False
N.N.O=C([O-])C[O-].[Pt+2] [Nedaplatin]	False
Cc1cc(S(=O)(=O)O)c2c(C)ccc(C(C)C)cc1-2 [Sodium gualenate]	True
CNS(=O)(=O)C[C@H]1CC[C@H](N(C)c2[nH]cnc3nccc2-3)CC1	True
O=C(O)CCCC[C@@H]1CCSS1 (racemic) [Thioctic acid]	False
C[N+]1(C)[C@@H]2C[C@@H](OC(=O)C(O)(c3cccs3)c3cccs3)C[C@H]1[C@@H]1O[C@@H]12 [Tiotropium Bromide hydrate]	True
